Entries and their φ (quantum yield) values follow.
Experiment: Quantum yield measurements
Type: physicochemical
Settings: referred to Rhodamine B in EtOH, excitation 510 nm, emission integrated 540-800 nm
Endpoint Label: φ (quantum yield)

COc1cccc(Oc2ccc(/C=C/C3=[N+]4C(=C(CCN)c5cccn5[B-]4(F)F)C(C)=C3)cc2)c1 : 0.32
CC1=CC(/C=C/c2ccc(OC(C)(C)C)cc2)=[N+]2C1=C(CCN)c1cccn1[B-]2(F)F : 0.53
CC1=CC(/C=C/c2ccc(Oc3ccc(C(C)(C)C)cc3)cc2)=[N+]2C1=C(CCN)c1cccn1[B-]2(F)F : 0.39
COc1cc(/C=C/C2=[N+]3C(=C(CCN)c4cccn4[B-]3(F)F)C(C)=C2)cc(O)c1OC : 0.07
COC(=O)c1cc(OC)cc(OC)c1/C=C/C1=[N+]2C(=C(CCN)c3cccn3[B-]2(F)F)C(C)=C1 : 0.85
CC1=CC(/C=C/c2cc(Br)ccc2O)=[N+]2C1=C(CCN)c1cccn1[B-]2(F)F : 0.28
COc1cc(/C=C/C2=[N+]3C(=C(CCN)c4cccn4[B-]3(F)F)C(C)=C2)ccc1F : 0.18
CC1=CC(/C=C/c2c3ccccc3c(C)c3ccccc23)=[N+]2C1=C(CCN)c1cccn1[B-]2(F)F : 0.11
CC1=CC(/C=C/c2ccc(OCc3ccccc3)cc2)=[N+]2C1=C(CCN)c1cccn1[B-]2(F)F : 0.26
Cc1cc(/C=C/c2c3ccccc3cc3ccccc23)n2c1C(CCN)=C1C=CC=[N+]1[B-]2(F)F : 0.12
CC1=CC(/C=C/c2ccccc2I)=[N+]2C1=C(CCN)c1cccn1[B-]2(F)F : 0.32
Cc1ccc(O)c(/C=C/c2cc(C)c3n2[B-](F)(F)[N+]2=CC=CC2=C3CCN)c1 : 0.14
COc1cccc(/C=C/C2=[N+]3C(=C(CCN)c4cccn4[B-]3(F)F)C(C)=C2)c1Cl : 0.28
Cc1cc(/C=C/c2ccc(C=O)cc2)n2c1C(CCN)=C1C=CC=[N+]1[B-]2(F)F : 0.24
Cc1cc(/C=C/c2ccc(N(c3ccccc3)c3ccccc3)cc2)n2c1C(CCN)=C1C=CC=[N+]1[B-]2(F)F : 0.02
COc1cc(F)c(/C=C/C2=[N+]3C(=C(CCN)c4cccn4[B-]3(F)F)C(C)=C2)cc1OC : 0.25
